experiment: amyloid nucleation score (Sup35N fusion, yeast selection) (log enrichment); library NNK2; higher = more nucleation; inactive = no reads after selection;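 also: zero at mode of non-aggregating sequences after 7 days selection at 30°C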
Bucketed by reported amyloid nucleation score, buckets being low group = under -0.3, middle group = from -0.3 up to 0.6, high group = 0.6 and over

> print(dat)
              substance         group
1  VSNGVVMDKCIRKICTVLTM     low group
2               LCVYMFT    high group
3  PFGKPVYLIFPPGMLVIFRA     low group
4      GHRNTDRSRREDRTKW    high group
5     SMPLASSMSKHNHWHLV  middle group
6  LVEAFYNVWRRTSAHCETVC  middle group
7            WSLYLVVLAQ  middle group
8                PVIIAW  middle group
9                CCDVRS  middle group

====

assay: amyloid nucleation score (Sup35N fusion, yeast selection) (log enrichment); library NNK2; higher = more nucleation; inactive = no reads after selection
List of amyloid nucleation score values.
readout_name: amyloid nucleation score

> print(dat)
              substance              readout.name  numeric.readout
1       INCSAFNHCIYSSPT  amyloid nucleation score             2.82
2   FREGSSIGFVLPTENVLMT  amyloid nucleation score            0.256
3              WGAVMACE  amyloid nucleation score            0.756
4  VSMLISTTPAYIIRQFKGLW  amyloid nucleation score             1.09
5            ALTVKSQLCG  amyloid nucleation score            -1.71
6                TLFRKL  amyloid nucleation score           -0.543
7  DVGSNKGAIIGLMVGGVVIA  amyloid nucleation score              2.4
8  IFYKPVFSLFVIGSRMNGGI  amyloid nucleation score             7.29
9          GFSSHSSFNHTI  amyloid nucleation score             1.37

====

test: amyloid nucleation score (Sup35N fusion, yeast selection) (log enrichment); library NNK2; higher = more nucleation; inactive = no reads after selection
Classification field: criterion met = amyloid nucleation score at or over -0.2; criterion not met = amyloid nucleation score under -0.2.

> print(dat)
               substance              group
 1  SYFLGFVRYAVILSGMLLST  criterion not met
 2           NSIIGCYRGFC      criterion met
 3  IAGLTISSAISGSWDVVKPS      criterion met
 4            AWLVLWDIAI      criterion met
 5        SMICGFKLASHSVG  criterion not met
 6  SLVSFFVIKRSYFSTRLCTG  criterion not met
 7      CQPNLWARVCLVWCYW      criterion met
 8  QVVFQGLFFYVGCSGHICRY      criterion met
 9           RNCTRFPWSIM      criterion met
10        FKSVLWCKFLTDIG      criterion met
11  TIGPNKMRVEAGLEFQKLGK  criterion not met
12  KVRTLINLRSRVTLRYDLSI  criterion not met
13              FSWVIYYE  criterion not met
14  KMAMTVLILPYVPGQLRLTE      criterion met
15  TSDYYTSNVQDSALRHFFSP      criterion met
16    DWTDCYWMLRDTGGFSIS  criterion not met
17    AYWYSQRAMGFKHSLFLT  criterion not met
18              LYPLCYGL  criterion not met
19    NSTCDMLVSQVVAAVNGF  criterion not met
20  WCCMGDMISVKSLVWEPCVT      criterion met
21           GDKSIRSPLAV      criterion met
22  KQFDMDAWLTWSRMVFMSPV      criterion met
23  AIQQTQLLCIENMVGLFVVR      criterion met
24  CTPLGFCSKNRLGLQEDGVK  criterion not met
25        TDYVRHKRRNYCLL      criterion met
26       DYWFRGAESCTCGLE      criterion met
27              ISLNLVVN  criterion not met
28               FLVENCC  criterion not met
29  LCHLVFVVSDWRQRLRVFTV      criterion met
30  HRASRMCGINLARPTVMVVT      criterion met
31  FFLIRSMGSSSAYRLRVCWR  criterion not met
32  MCMLDRRYQTVMSKVWPNLT      criterion met
33  FIADYYGGKTHGNLMSALTC      criterion met

Data origin: the supplement of paper PMC12042874
